Measured values drawn from patent US10626094B2 for this set.

// reported IC50 for each item listed
Assayed target: LMPTP-A (Low Molecular Weight Protein Tyrosine Phosphatase-A) enzyme (Homo sapiens (Human), UniProt P24666)
Sequence (P24666 whole entry): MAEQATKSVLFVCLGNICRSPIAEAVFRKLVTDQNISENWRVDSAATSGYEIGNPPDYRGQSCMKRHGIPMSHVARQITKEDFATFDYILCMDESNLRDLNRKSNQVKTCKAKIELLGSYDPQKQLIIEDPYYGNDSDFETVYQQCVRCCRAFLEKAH
Assay explanation: LMPTP primary screening / LMPTP (OMFP) enzyme inhibition assay, fluorescence intensity
Format: biochemical
Details: LMPTP-A, OMFP substrate, method of Example 2; read-out: IC50

Answered examples (5):
Molecule | IC50
c1ccc2c(NCCCN3CCCCC3)cc(-c3ccc4scnc4c3)nc2c1 | 0.801 to 5 µM
CN(C)c1cc(-c2ccoc2)nc2ccccc12 | > 5 µM
COc1ccc(-c2cc(Nc3ccnnc3)c3ccccc3n2)cc1 | 0.801 to 5 µM
Cc1nc2ccc(-c3cc(NCCCN4CCCCC4)c4ccccc4n3)cc2s1 | 0.801 to 5 µM
c1ccc2c(NCCCN3CCCCC3)cc(-c3cncnc3)nc2c1 | 0.801 to 5 µM

Reported IC50 for Clc1cccc(-c2cc(Nc3cccc(CC4CCNCC4)c3)c3ccccc3n2)c1 [Compound I20] : what is it?
0.801 to 5 µM

Try this molecule next: COc1ccc(-c2cc(NCCCN3CCCCC3)c3cc(OC(F)(F)F)ccc3n2)cc1
> 5 µM

Try this molecule next: COc1ccc(-c2cc(Nc3cccc(CN4CCN(C)CC4)c3)c3ccccc3n2)cc1
0.801 to 5 µM

---

// reported pIC50 for each item listed
Assayed target: LMPTP-A (Low Molecular Weight Protein Tyrosine Phosphatase-A) enzyme (Homo sapiens (Human), UniProt P24666)
Assay explanation: LMPTP primary screening / LMPTP (OMFP) enzyme inhibition assay, fluorescence intensity
Assay type: biochemical
Details: LMPTP-A, OMFP substrate, method of Example 2; read-out: IC50
pIC50: −log10 of the molar value.

Compound | Result
FC(F)(F)c1ccc(-c2cc(NCCCC3CCCNC3)c3ccccc3n2)c(Cl)c1 (stereo not shown) | 5.30 to 6.10
O=C(NCCN1CCCCC1)c1ccc(-c2cc(NCCCN3CCCCC3)c3ccccc3n2)cc1 | 6.10 to 6.70
c1ccc(-c2ccc(-c3cc(NCCCN4CCCCC4)c4ccccc4n3)cc2)cc1 | 5.30 to 6.10
COc1ccc(-c2cc(NCc3cccc(C#N)c3)c3ccccc3n2)cc1 | 5.30 to 6.10

Reported pIC50 for COc1ccc(-c2cc(Nc3ccc(C(F)(F)F)cc3)c3ccccc3n2)cc1 : what is it?
5.30 to 6.10

Try this compound next: CN(C)C(=O)c1ccc(-c2cc(NCCCN3CCCCC3)c3ccccc3n2)cc1
5.30 to 6.10

Try this compound next: COc1ccc(-c2cc(NCCCc3ccncc3)c3ccccc3n2)cc1
5.30 to 6.10
